Where do these numbers come from? They come from patent US8299091B2.

assay: Determination of bioavailability / pharmacokinetics in rats; format: in vivo; settings: male, Wistar Ola, plasma; rat, IV 5 mg/kg, saline; mean of two studies
experimental readout: AUC (ng·h/mL)

{"columns": ["smiles structure", "experimental readout", "measure unit", "number"],
 "data": [
  ["Cl.Nc1nccc2cc(CNC(=O)[C@@H]3CCCN3C(=O)[C@H](NCC(=O)O)C(c3ccccc3)c3ccccc3)ccc12", "AUC", "ng·h/mL", 4860]
]}

====

The entries below come with measured half-life values attached.
assay: Determination of bioavailability / pharmacokinetics in rats; type: in vivo; details: male, Wistar Ola, plasma; rat, IV 2 mg/kg, saline; read-out: T½ (converted)
Counter-ions that a name gives are not always drawn.

{"columns": ["molecule", "half-life (min)"],
 "data": [
  ["COc1ccc(C[C@@H](NCC(=O)O)C(=O)N2CCC[C@H]2C(=O)NCc2ccc3c(N)nccc3c2)cc1 [Compound 3B, trifluoroacetate]", 9.6],
  ["Nc1nccc2cc(CNC(=O)[C@@H]3CCCN3C(=O)[C@@H](Cc3ccccc3)NCC(=O)O)ccc12 [Compound 2B, trifluoroacetate]", 36.6]
]}

====

assay: Determination of bioavailability / pharmacokinetics in rats; format: in vivo; settings: male, Wistar Ola, plasma; rat, PO 10 mg/kg of the free acid itself, saline

{"columns": ["smiles structure", "measure unit", "Cmax"],
 "data": [
  ["Cl.Nc1nccc2cc(CNC(=O)[C@@H]3CCCN3C(=O)[C@H](NCC(=O)O)C(c3ccccc3)c3ccccc3)ccc12", "ng/mL", 35]
]}

====

experiment: Determination of bioavailability / pharmacokinetics in rats; format: in vivo; conditions: male, Wistar Ola, plasma; rat, IV 5 mg/kg, saline; mean of two studies; read-out: T½ (converted)
experimental readout: half-life (min)

{"columns": ["smiles structure", "experimental readout", "number"],
 "data": [
  ["Cl.Nc1nccc2cc(CNC(=O)[C@@H]3CCCN3C(=O)[C@H](NCC(=O)O)C(c3ccccc3)c3ccccc3)ccc12", "half-life", 19.2]
]}

====

biological target: human α-thrombin (Homo sapiens, UniProt P00734)
pKi: −log10 of the molar value. Counter-ions that a name gives are not always drawn.
Listed here: items and their measured pKi.

{"columns": ["compound", "pKi"],
 "data": [
  ["CCCOC(=O)CN[C@H](Cc1ccc(OC)cc1)C(=O)N1CCC[C@H]1C(=O)NCc1ccc2c(N)nccc2c1 [Compound 3A, hydrochloride]", 8.74],
  ["COc1ccc(C[C@@H](NCC(=O)O)C(=O)N2CCC[C@H]2C(=O)NCc2ccc3c(N)nccc3c2)cc1 [Compound 3B, trifluoroacetate]", 8.27],
  ["Cl.Nc1nccc2cc(CNC(=O)[C@@H]3CCCN3C(=O)[C@H](NCC(=O)O)C(c3ccccc3)c3ccccc3)ccc12 [Compound 1B, hydrochloride]", 9.05],
  ["CCCOC(=O)CN[C@H](Cc1ccccc1)C(=O)N1CCC[C@H]1C(=O)NCc1ccc2c(N)nccc2c1 [Compound 2A, hydrochloride]", 7.46]
]}

====

Structures can show the parent of a compound that is named as a salt.
// values below are IC50; system is human α-thrombin (Homo sapiens)
experimental readout: IC50

{"columns": ["compound", "result"],
 "data": [
  ["COc1ccc(C[C@@H](NCC(=O)O)C(=O)N2CCC[C@H]2C(=O)NCc2ccc3c(N)nccc3c2)cc1 [Compound 3B, trifluoroacetate]", "358 nM"],
  ["CCCOC(=O)CN[C@H](Cc1ccccc1)C(=O)N1CCC[C@H]1C(=O)NCc1ccc2c(N)nccc2c1 [Compound 2A, hydrochloride]", "573 nM"],
  ["CCCOC(=O)CN[C@H](Cc1ccc(OC)cc1)C(=O)N1CCC[C@H]1C(=O)NCc1ccc2c(N)nccc2c1 [Compound 3A, hydrochloride]", "197 nM"],
  ["Cl.Nc1nccc2cc(CNC(=O)[C@@H]3CCCN3C(=O)[C@H](NCC(=O)O)C(c3ccccc3)c3ccccc3)ccc12 [Compound 1B, hydrochloride]", "12.6 nM"]
]}
